# assayed target: ALK2 (Homo sapiens, UniProt Q04771, Q207D)
# Construct: His tag (TEV-cleavable) (N, cleaved yes); made in house; host or cells: Sf9 insect cells (baculovirus)
# Sequence (Q04771 201-499 Q207D): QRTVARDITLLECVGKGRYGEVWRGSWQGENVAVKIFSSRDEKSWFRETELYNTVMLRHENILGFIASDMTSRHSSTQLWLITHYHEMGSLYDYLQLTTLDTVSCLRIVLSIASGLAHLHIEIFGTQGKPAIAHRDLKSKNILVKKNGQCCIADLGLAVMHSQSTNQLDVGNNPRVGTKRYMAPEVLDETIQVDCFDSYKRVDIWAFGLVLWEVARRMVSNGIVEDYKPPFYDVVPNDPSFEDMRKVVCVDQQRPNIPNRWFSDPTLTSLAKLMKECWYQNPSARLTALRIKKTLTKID
# assay details: Thermal shift kinase assay ALK2
# Type: binding
# condition parameters: ALK2 minus ALK5
quantity measured: ΔTmDiff.

Worked examples follow.
COc1ccc(-c2cc(-c3ccc(N4CCNCC4)cc3)cnc2N)cc1 [Compound 20] | 4.5
COc1cc(-c2cncc(-c3ccc(N4CCNCC4)cc3)c2)cc(OC)c1OC [Compound 26] | 3.7
COc1cccc(-c2cc(-c3ccc(N4CCNCC4)cc3)cnc2N)c1 [Compound 18] | 3.8
COc1cc(-c2cnn3cc(-c4ccc(N5CCNCC5)cc4)cnc23)cc(OC)c1OC [Compound 32] | 2.6
COc1cc(-c2cc(-c3ccc(N4CCNCC4)cc3)cnc2N)ccc1C [Compound 23] | 3.8

(I) COc1cc(-c2cc(-c3cccc(NS(C)(=O)=O)c3)cnc2N)cc(OC)c1OC [Compound 13]
(II) COc1cc(-c2cc(-c3ccc(N4CCNCC4)cc3)cnc2N(C)C)cc(OC)c1OC [Compound 25]
(III) Nc1ncc(-c2ccc(N3CCNCC3)cc2)cc1-c1ccc2c(c1)OCCO2 [Compound 19]
Ask: Order each entry by recorded ΔTmDiff., climbing from the minimum. Write the labels in rank order as requested.
Reply: II, I, III
(II: 0.1, I: 0.9, III: 4.0)

(P) CC(C)Oc1cccc(-c2cc(-c3ccc(N4CCNCC4)cc3)cnc2N)c1 [Compound 21]
(Q) Nc1ncc(-c2cccc(N3CCNCC3)c2)cc1-c1ccnc2ccccc12 [Compound 30]
Ask: Higher ΔTmDiff.: P or Q ? Your choice should be expressed through its label.
Reply: Q
(Q: 2.5, P: 1.0)
